In this section, each of the compounds is paired with its reported pIC50.
Tested on: GFP-eIF2α in HEK293 cells
Assay: PERK cellular assay, TR-FRET in HEK293-EGFP-eIF2a cells after tunicamycin-induced ER stress
Format: cell-based
Conditions: HEK293-EGFP-eIF2a cells, tunicamycin 2 hours; read-out: Cellular eIF2α IC50
Experimental: Stable cell lines were created in HEK293 cells using lentiviral particles harboring an expression vector for GFP-eIF2α. Cells were selected using puromycin and enriched using fluorescence activated cell sorting against GFP. […] Cells were lysed and TR-FRET was measured in an EnVision plate reader (PerkinElmer). […] IC50 values were calculated using 4-parameter logistical fitting in XLFit.
pIC50: −log10 of the molar value.

Here are 10 compounds together with their reported answers.
Compound: Cn1cc(-c2ccc(NC(=O)C(O)c3cccc(F)c3)cc2)c2c(N)ncnc21 (stereo not shown) [Example 29]
Recorded value: 7.60 to 9.00

Compound: Cc1nc(N)c2c(-c3ccc(NC(=O)C(O)c4cccc(F)c4)nc3C)cn(C)c2n1 (stereo not shown) [Example 128]
Recorded value: < 5.30

Compound: Cc1nc(N)c2c(-c3ccc(NC(=O)C(O)c4cccc(Cl)c4)c(F)c3F)cn(C)c2n1 (stereo not shown) [Example 112]
Recorded value: 6.00 to 6.30

Compound: Cc1nc(N)c2c(-c3cnc(NC(=O)C(O)c4cccc(F)c4)cc3C)cn(C)c2n1 (stereo not shown) [Example 133]
Recorded value: 5.30 to 5.40

Compound: Cc1nc(N)c2c(-c3ccc(NC(=O)C(O)c4cc(F)cc(C(F)(F)F)c4)cc3F)cn(C)c2n1 (stereo not shown) [Example 87]
Recorded value: 7.00 to 7.29

Compound: Cc1cc(F)cc(C(O)C(=O)Nc2ccc(-c3cn(C)c4nc(C)nc(N)c34)c(F)c2)c1 (stereo not shown) [Example 85]
Recorded value: 7.60 to 9.00

Compound: Cc1cccc(C(O)C(=O)Nc2ccc(-c3cn(C)c4nc(C)nc(N)c34)c(F)c2)c1 (stereo not shown) [Example 74]
Recorded value: 7.60 to 9.00

Compound: Cc1nc(N)c2c(-c3ccc(NC(=O)C(O)c4cccc(Cl)c4)cc3C)cn(C)c2n1 (stereo not shown) [Example 37]
Recorded value: 7.60 to 9.00

Compound: Cc1cc(NC(=O)C(O)c2cccc(F)c2)c(F)cc1-c1cn(C)c2ncnc(N)c12 (stereo not shown) [Example 120]
Recorded value: 6.30 to 6.60

Compound: Cc1nc(N)c2c(-c3ccc(NC(=O)C(O)c4cccc(Cl)c4)c(F)c3F)cn(C)c2n1 (stereo not shown) [Example 111]
Recorded value: 7.60 to 9.00

Record Cc1nc(N)c2c(-c3ccc(NC(=O)C(O)c4cccc(C(F)(F)F)c4)cc3Cl)cn(C)c2n1 (stereo not shown) [Example 101] has GFP-eIF2α in HEK293 cells pIC50 equal to 7.60 to 9.00

Record Cc1nc(N)c2c(-c3ccc(NC(=O)C(O)c4ccccc4C)cc3F)cn(C)c2n1 (stereo not shown) [Example 72] has GFP-eIF2α in HEK293 cells pIC50 equal to 7.30 to 7.59

Known value: GFP-eIF2α in HEK293 cells pIC50 of the compound Cc1nc(N)c2c(-c3ccc(NC(=O)C(O)c4cccc(F)c4)cc3C)cn(C)c2n1 (single isomer, unassigned) [Example 1] equals 7.30 to 7.59

Cc1nc(N)c2c(-c3ccc(NC(=O)C(O)c4ccccc4C)cc3Cl)cn(C)c2n1 (stereo not shown) [Example 94] tested on GFP-eIF2α in HEK293 cells gave pIC50: 7.00 to 7.29

The value of pIC50 recorded for Cn1cc(-c2ccc(NC(=O)C(O)c3cccc(F)c3)cc2Cl)c2c(N)ncnc21 (stereo not shown) [Example 15] when tested on GFP-eIF2α in HEK293 cells reads 7.00 to 7.29

Test item Cc1cc(NC(=O)C(O)c2cccc(F)c2)ccc1-c1cn(C)c2ncnc(N)c12 (stereo not shown) [Example 10] ; GFP-eIF2α in HEK293 cells; reported pIC50 was 7.00 to 7.29
